target: cyclin E/CDK2 enzyme (Homo sapiens, UniProt P24941); construct: made in house; host or cells: Sf9 insect cells, recombinant baculovirus; assay: CDK2 ELISA kinase assay (phospho-Rb ser 795 detection); type: biochemical; details: In Vitro Enzyme Assay, cyclin E/CDK2, read-out: CDK2 IC50
pIC50: −log10 of the molar value.
Mark Condition met for reported pIC50 of 5 or greater; mark Condition not met for anything smaller.

COMPOUND: O=C1NC(=O)c2ccccc2/C1=C/Nc1ccc(CN2CCCC2)cc1
SYSTEM UNDER TEST: cyclin E/CDK2 enzyme (Homo sapiens, UniProt P24941)
GROUP LABEL: Condition not met

COMPOUND: O=C1NC(=O)c2ccc(I)cc2/C1=C/NCc1cc(O)c(OCCN2CCCC2)cn1
SYSTEM UNDER TEST: cyclin E/CDK2 enzyme (Homo sapiens, UniProt P24941)
GROUP LABEL: Condition met

COMPOUND: N#CCc1ccc(NC=C2C(=O)NC(=O)c3ccc(-c4ccc[nH]4)cc32)cc1
SYSTEM UNDER TEST: cyclin E/CDK2 enzyme (Homo sapiens, UniProt P24941)
GROUP LABEL: Condition not met

COMPOUND: CCN1CCCC1c1ccc(N/C=C2\C(=O)NC(=O)c3ccc(-c4ccoc4)cc32)cc1 (centres unmarked)
SYSTEM UNDER TEST: cyclin E/CDK2 enzyme (Homo sapiens, UniProt P24941)
GROUP LABEL: Condition not met

COMPOUND: O=C1NC(=O)c2ccc(I)cc2/C1=C/NCc1cc(O)ccc1I
SYSTEM UNDER TEST: cyclin E/CDK2 enzyme (Homo sapiens, UniProt P24941)
GROUP LABEL: Condition not met

COMPOUND: O=C1NC(=O)c2ccc(-c3ccc(Cl)cc3Cl)cc2C1=CNCc1ccc(O)c(O)c1
SYSTEM UNDER TEST: cyclin E/CDK2 enzyme (Homo sapiens, UniProt P24941)
GROUP LABEL: Condition met

COMPOUND: O=C1NCc2cc(Br)ccc2C1=CNc1ccc(CCO)cc1
SYSTEM UNDER TEST: cyclin E/CDK2 enzyme (Homo sapiens, UniProt P24941)
GROUP LABEL: Condition not met

---

Parameter: melting point. Scope: all listed entries.

COMPOUND: O=C1NCc2ccccc2C1=CNc1ccc(CCN2CCCC2)cc1
melting point: 169 to 173 °C (dec.)
//
COMPOUND: COc1ccc(CN/C=C2\C(=O)NC(=O)c3cc(Br)ccc32)cc1O
melting point: 297 to 298 °C
//
COMPOUND: O=C1NC(=O)c2ccc(I)cc2/C1=C/Nc1ccc(CN2CCCCC2CO)cc1 (centres unmarked)
melting point: 205 to 206 °C
//
COMPOUND: COc1cc(CN/C=C2\C(=O)NC(=O)c3ccc(I)cc32)cc(O)c1OC
melting point: 265 to 266 °C
//
COMPOUND: O=C1NC(=O)c2ccc(Br)cc2/C1=C/Nc1ccc(CN2CCC(CCO)CC2)cc1
melting point: 200 to 201 °C
//
COMPOUND: CN1CCC(c2ccc(N/C=C3\C(=O)NC(=O)c4ccc(I)cc43)cc2)CC1
melting point: 215 to 216 °C
//
COMPOUND: COc1cc(CN/C=C2\C(=O)NC(=O)c3ccc(-c4ccoc4)cc32)cc(O)c1OC
melting point: 263 to 264 °C
//
COMPOUND: CN1CCN(c2ccc(N/C=C3\C(=O)NC(=O)c4ccc(-c5ccc(C=O)o5)cc43)cc2)CC1 (hydrate or solvate)
melting point: 218 to 220 °C
